// pIC50 lookup, one value per entry
- Test system: BxPC-3 cells
- test.details: PrestoBlue cell viability assay, comparative cytotoxicity assay under 'low glucose'
- Type: cell-based, human
- condition: 'low glucose' RPMI 1640 (no glucose added), 24 h exposure, 50.8 pM to 1 µM, three independent experiments each in technical duplicate
pIC50: −log10 of the molar value. Square brackets hold non-standard residues; d marks the D form. Peptide text beside a SMILES is read from it. * marks the point of attachment. Alaψ(CH2NMeCH2CH2OH) = C[C@@H](CN(C)CCO)N*; Decanoyl(2R-Me) = CCCCCCCC[C@@H](C)C(=O)*; Cha = N[C@@H](CC1CCCCC1)C(=O)O; Lauroyl = CCCCCCCCCCCC(=O)*; Decanoyl = CCCCCCCCCC(=O)*; Octanoyl = CCCCCCCC(=O)*; Hexanoyl = CCCCCC(=O)*; Aib = CC(C)(N)C(=O)O; Propionyl = CCC(=O)*; Butyryl = CCCC(=O)*

{"molecule": "CCCCCCCCCC(=O)N1CCC[C@H]1C(=O)N[C@@H](CC1CCCCC1)C(=O)NC(C)(C)C(=O)NC(C)(C)C(=O)N[C@H](C(=O)N[C@H](C(=O)NC(C)(C)C(=O)NC(C)(C)C(=O)N[C@@H](C)CN(C)CCO)C(C)C)[C@@H](C)CC [(18)] (Decanoyl-P[Cha][Aib][Aib]IV[Aib][Aib]-{Alaψ(CH2NMeCH2CH2OH)})", "readout.qualifier": "=", "pIC50": 6.70}
{"molecule": "CCC(=O)N1CCC[C@H]1C(=O)N[C@@H](CC1CCCCC1)C(=O)NC(C)(C)C(=O)NC(C)(C)C(=O)N[C@H](C(=O)N[C@H](C(=O)NC(C)(C)C(=O)NC(C)(C)C(=O)N[C@@H](C)CN(C)CCO)C(C)C)[C@@H](C)CC [(14)] (Propionyl-P[Cha][Aib][Aib]IV[Aib][Aib]-{Alaψ(CH2NMeCH2CH2OH)})", "readout.qualifier": "=", "pIC50": 6.22}
{"molecule": "CCCCCCCC[C@@H](C)C(=O)N1CCC[C@H]1C(=O)N[C@@H](CC1CCCCC1)C(=O)NC(C)(C)C(=O)NC(C)(C)C(=O)N[C@H](C(=O)N[C@H](C(=O)NC(C)(C)C(=O)NC(C)(C)C(=O)N[C@@H](C)CN(C)CCO)C(C)C)[C@@H](C)CC [(4)] ({Decanoyl(2R-Me)}-P[Cha][Aib][Aib]IV[Aib][Aib]-{Alaψ(CH2NMeCH2CH2OH)})", "readout.qualifier": "=", "pIC50": 6.40}
{"molecule": "CCCCCCCCCCCC(=O)N1CCC[C@H]1C(=O)N[C@@H](CC1CCCCC1)C(=O)NC(C)(C)C(=O)NC(C)(C)C(=O)N[C@H](C(=O)N[C@H](C(=O)NC(C)(C)C(=O)NC(C)(C)C(=O)N[C@@H](C)CN(C)CCO)C(C)C)[C@@H](C)CC [(19)] (Lauroyl-P[Cha][Aib][Aib]IV[Aib][Aib]-{Alaψ(CH2NMeCH2CH2OH)})", "readout.qualifier": "=", "pIC50": 7.00}
{"molecule": "CCCCCCCC(=O)N1CCC[C@H]1C(=O)N[C@@H](CC1CCCCC1)C(=O)NC(C)(C)C(=O)NC(C)(C)C(=O)N[C@H](C(=O)N[C@H](C(=O)NC(C)(C)C(=O)NC(C)(C)C(=O)N[C@@H](C)CN(C)CCO)C(C)C)[C@@H](C)CC [(17)] (Octanoyl-P[Cha][Aib][Aib]IV[Aib][Aib]-{Alaψ(CH2NMeCH2CH2OH)})", "readout.qualifier": "=", "pIC50": 6.40}
{"molecule": "CC[C@H](C)[C@H](NC(=O)C(C)(C)NC(=O)C(C)(C)NC(=O)[C@H](CC1CCCCC1)NC(=O)[C@@H]1CCCN1)C(=O)N[C@H](C(=O)NC(C)(C)C(=O)NC(C)(C)C(=O)N[C@@H](C)CN(C)CCO)C(C)C [(12)] (H-P[Cha][Aib][Aib]IV[Aib][Aib]-{Alaψ(CH2NMeCH2CH2OH)})", "readout.qualifier": "<", "pIC50": 6.00}
{"molecule": "CCCCCC(=O)N1CCC[C@H]1C(=O)N[C@@H](CC1CCCCC1)C(=O)NC(C)(C)C(=O)NC(C)(C)C(=O)N[C@H](C(=O)N[C@H](C(=O)NC(C)(C)C(=O)NC(C)(C)C(=O)N[C@@H](C)CN(C)CCO)C(C)C)[C@@H](C)CC [(16)] (Hexanoyl-P[Cha][Aib][Aib]IV[Aib][Aib]-{Alaψ(CH2NMeCH2CH2OH)})", "readout.qualifier": "=", "pIC50": 6.40}
{"molecule": "CCCC(=O)N1CCC[C@H]1C(=O)N[C@@H](CC1CCCCC1)C(=O)NC(C)(C)C(=O)NC(C)(C)C(=O)N[C@H](C(=O)N[C@H](C(=O)NC(C)(C)C(=O)NC(C)(C)C(=O)N[C@@H](C)CN(C)CCO)C(C)C)[C@@H](C)CC [(15)] (Butyryl-P[Cha][Aib][Aib]IV[Aib][Aib]-{Alaψ(CH2NMeCH2CH2OH)})", "readout.qualifier": "=", "pIC50": 6.30}
{"molecule": "CC[C@H](C)[C@H](NC(=O)C(C)(C)NC(=O)C(C)(C)NC(=O)[C@H](CC1CCCCC1)NC(=O)[C@@H]1CCCN1C(C)=O)C(=O)N[C@H](C(=O)NC(C)(C)C(=O)NC(C)(C)C(=O)N[C@@H](C)CN(C)CCO)C(C)C [(13)] (Ac-P[Cha][Aib][Aib]IV[Aib][Aib]-{Alaψ(CH2NMeCH2CH2OH)})", "readout.qualifier": "<", "pIC50": 6.00}
